Target: TNFα binding to TNFα-RI (Homo sapiens, UniProt P01375+P19438)
Sequence (P01375 77-233 limits assumed): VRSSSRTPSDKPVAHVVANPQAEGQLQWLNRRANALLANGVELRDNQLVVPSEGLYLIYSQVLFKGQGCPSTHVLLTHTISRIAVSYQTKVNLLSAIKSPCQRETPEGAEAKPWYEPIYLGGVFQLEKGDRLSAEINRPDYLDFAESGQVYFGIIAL
Sequence (P19438 22-211 limits assumed): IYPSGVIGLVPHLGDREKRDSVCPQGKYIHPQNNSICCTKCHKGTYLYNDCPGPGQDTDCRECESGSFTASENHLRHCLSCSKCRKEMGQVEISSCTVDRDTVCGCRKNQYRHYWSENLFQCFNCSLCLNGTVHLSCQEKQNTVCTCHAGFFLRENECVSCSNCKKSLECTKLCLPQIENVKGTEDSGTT
Experiment: Inhibition of binding of biotinylated TNFα to TNFα-RI on coated microtiter plate
Conditions: biotinylated TNFα 0.5 μg/ml mixed 1:1 with compound, TNFα-RI coated plate; read-out: 50% inhibitory dose (IC50) on TNFα binding to TNFα-RI

# Compound, IC50
records = [
    ("O=c1ccn(C2OC(CCO)C(O)C2O)c(=O)[nH]1 (stereo not shown)", "50 µM"),
]

Entry source: patent US6683060B2
